# Study system: CD33 (Sino Biological, Cat #12238-H08H) (UniProt P20138 18-259)
# Sequence (P20138 18-259 limits assumed): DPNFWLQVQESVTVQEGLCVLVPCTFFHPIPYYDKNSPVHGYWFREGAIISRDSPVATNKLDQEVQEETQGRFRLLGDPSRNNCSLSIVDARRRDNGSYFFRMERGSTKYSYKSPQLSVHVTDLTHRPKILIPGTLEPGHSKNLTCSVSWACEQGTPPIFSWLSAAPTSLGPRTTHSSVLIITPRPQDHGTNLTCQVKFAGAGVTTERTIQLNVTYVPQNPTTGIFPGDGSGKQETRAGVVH
# Test details: BLI, IgG captured on anti-human Fc sensor, 50 nM CD33, pH 7.4 vs pH 5.4
Metric: binding result

Examples with their reported binding result follow.
{"columns": ["Binder", "Result"],
 "data": [
  ["MYT1168 (antibody, V domains shown, IgG; gemtuzumab VH combination #7 (S32H+G57H)) VH: EVQLVQSGAEVKKPGSSVKVSCKASGYTITDHNIHWVRQAPGQSLEWIGYIYPYNGHTDYNQKFKNRATLTVDNPTNTAYMELSSLRSEDTDFYYCVNGNPWLAYWGQGTLVTVSS VL: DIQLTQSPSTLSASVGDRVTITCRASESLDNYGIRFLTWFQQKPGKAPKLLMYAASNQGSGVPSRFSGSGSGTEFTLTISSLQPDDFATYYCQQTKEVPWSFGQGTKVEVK", "binds"],
  ["MYT1604 (antibody, V domains shown, IgG; gemtuzumab VL variant #15 (T38H)) VH: EVQLVQSGAEVKKPGSSVKVSCKASGYTITDSNIHWVRQAPGQSLEWIGYIYPYNGGTDYNQKFKNRATLTVDNPTNTAYMELSSLRSEDTDFYYCVNGNPWLAYWGQGTLVTVSS VL: DIQLTQSPSTLSASVGDRVTITCRASESLDNYGIRFLHWFQQKPGKAPKLLMYAASNQGSGVPSRFSGSGSGTEFTLTISSLQPDDFATYYCQQTKEVPWSFGQGTKVEVK", "binds"],
  ["MYT2617 (antibody, V domains shown, IgG; IMGN779 VL variant #1 (K24H)) VH: QVQLQQPGAEVVKPGASVKMSCKASGYTFTSYYIHWIKQTPGQGLEWVGVIYPGNDDISYNQKFQGKATLTADKSSTTAYMQLSSLTSEDSAVYYCAREVRLRYFDVWGQGTTVTVSS VL: EIVLTQSPGSLAVSPGERVTMSCHSSQSVFFSSSQKNYLAWYQQIPGQSPRLLIYWASTRESGVPDRFTGSGSGTDFTLTISSVQPEDLAIYYCHQYLSSRTFGQGTKLEIK", "binds"],
  ["MYT2623 (antibody, V domains shown, IgG; IMGN779 VL variant #7 (F30H)) VH: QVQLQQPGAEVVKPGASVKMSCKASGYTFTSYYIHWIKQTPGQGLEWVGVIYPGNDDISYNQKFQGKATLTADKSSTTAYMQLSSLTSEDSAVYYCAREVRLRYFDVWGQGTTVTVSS VL: EIVLTQSPGSLAVSPGERVTMSCKSSQSVHFSSSQKNYLAWYQQIPGQSPRLLIYWASTRESGVPDRFTGSGSGTDFTLTISSVQPEDLAIYYCHQYLSSRTFGQGTKLEIK", "binds"]
]}

Next, consider the following binder.
Task item: I have this binder here, MYT1224 (antibody, V domains shown, IgG; IMGN779 VH variant #12 (I51H)) VH: QVQLQQPGAEVVKPGASVKMSCKASGYTFTSYYIHWIKQTPGQGLEWVGVHYPGNDDISYNQKFQGKATLTADKSSTTAYMQLSSLTSEDSAVYYCAREVRLRYFDVWGQGTTVTVSS VL: EIVLTQSPGSLAVSPGERVTMSCKSSQSVFFSSSQKNYLAWYQQIPGQSPRLLIYWASTRESGVPDRFTGSGSGTDFTLTISSVQPEDLAIYYCHQYLSSRTFGQGTKLEIK , and I need its recorded binding result.
Reply: binds

The origin of these recorded values is patent US20220324969A1.
